# TEST_TARGET: T1, hANG2-His (human, UniProt O15123 19-496, limits assumed)
# T1 construct: also called 人源ANG2; ANGPT2; not shown: C-terminal His tag
# T1 sequence (looked up): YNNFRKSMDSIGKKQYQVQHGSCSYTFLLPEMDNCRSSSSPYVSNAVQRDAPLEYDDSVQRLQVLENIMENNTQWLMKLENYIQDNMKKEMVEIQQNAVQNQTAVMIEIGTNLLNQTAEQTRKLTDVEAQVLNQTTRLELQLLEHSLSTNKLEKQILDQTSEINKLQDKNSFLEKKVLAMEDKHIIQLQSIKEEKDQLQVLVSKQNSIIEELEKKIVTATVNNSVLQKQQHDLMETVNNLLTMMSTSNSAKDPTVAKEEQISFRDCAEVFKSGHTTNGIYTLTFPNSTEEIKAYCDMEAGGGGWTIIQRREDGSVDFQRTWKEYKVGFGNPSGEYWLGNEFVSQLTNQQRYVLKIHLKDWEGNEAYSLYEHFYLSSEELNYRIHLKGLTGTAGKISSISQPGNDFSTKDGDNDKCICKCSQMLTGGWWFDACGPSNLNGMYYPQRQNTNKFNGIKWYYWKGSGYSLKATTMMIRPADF
# TEST_NAME: BLI (Gator), antibody captured on sensor, hANG2-His 100/50/25 nM
What koff was measured for each of the following?
Quick note: give the figure in s⁻¹, leave out the unit.

Query: Recorded koff for 抗体78A74-35 (antibody, IgG1, V domains shown) VH: QVQLVESGGGLVKPGGSLRLSCAASGFTFSSYSMNWVRQAPGKGLEWVAVISYDGSNKYYADSVKGRFTISRDNSKNTLYLQMNSLRAEDTAVYYCAKATLDGYTAGYYYGMDVWGQGTTVTVSS VL: EIVLTQSPATLSLSPGERATLSCRASQSVSSYLAWYQQKPGQAPRLLIYDASNRATGIPARFSGSGSGTDFTLTISSLEPEDFAVYYCQQRSNWPPAMTFGQGTKVEIK , please?
Response: 0.000284

Query: Record request: koff value, item 抗体78A74-36 (antibody, IgG1, V domains shown) VH: QVQLVESGGGLVKPGGSLRLSCAASGFTFSSYSMNWVRQAPGKGLEWVAVISYDGSNKYYADSVKGRFTISRDNSKNTLYLQMNSLRAEDTAVYYCAKATLDGYTAGYYYGMDVWGQGTTVTVSS VL: EIVLTQSPATLSLSPGERATLSCRASQSVSSYLAWYQQKPGQAPRLLIYDASNRATGIPARFSGSGSGTDFTLTISSLEPEDFAVYYCQQRTMWPPEWTFGQGTKVEIK
Response: 0.000263

Query: Consider the binder shown here: 抗体78A74-25 (antibody, IgG1, V domains shown) VH: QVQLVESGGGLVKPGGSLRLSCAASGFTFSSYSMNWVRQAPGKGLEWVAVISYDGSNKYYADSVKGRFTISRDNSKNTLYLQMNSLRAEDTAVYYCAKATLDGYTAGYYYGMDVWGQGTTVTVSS VL: EIVLTQSPATLSLSPGERATLSCRASQSVSSYLAWYQQKPGQAPRLLIYDASNRATGIPARFSGSGSGTDFTLTISSLEPEDFAVYYCQQRSNWPPELYFGQGTKVEIK What is its recorded koff?
Response: 0.000161

Query: Give the measured koff of 抗体78A74-7 (antibody, IgG1, V domains shown) VH: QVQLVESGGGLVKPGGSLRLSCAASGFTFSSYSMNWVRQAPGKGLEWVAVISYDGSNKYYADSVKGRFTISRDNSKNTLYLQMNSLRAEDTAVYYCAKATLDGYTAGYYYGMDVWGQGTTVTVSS VL: EIVLTQSPATLSLSPGERATLSCRASQSVSSYLAWYQQKPGQAPRLLIYDASNRATGIPARFSGSGSGTDFTLTISSLEPEDFAVYYCQLMSNWPPEWTFGQGTKVEIK .
Response: 0.000103
